Below: a set of entries, each annotated with reported growth.
Test system: SF-295 CNS
Experiment: NCI-60 one-dose screen, 48 h (100 = growth as untreated, 0 = no growth, -100 = all killed)
Settings: 10 µM unless noted
This is part of a sample that, as a whole, favours compounds with a hit. Of some 83,000 tested, about 20% had one in any assay.
measuredQuantity: growth (%)

                                   molecule  testsystem  reading
0    O=[N+]([O-])c1ccc2scc3c4ccccc4nc-3c2c1  SF-295 CNS     84.7
1  COc1ccc2c(c1)c(-c1nc(-c3c[nH]c4ncccc34)cs1)cn2CCCCN1CCOCC1  SF-295 CNS     13.1
2  CC12CCC3C4CCC(=O)C=C4CCC3C1CC1CC(=O)OC12 (stereo not given)  SF-295 CNS      103
3  CC[C@H](C)[C@H](NC(=O)[C@H]1CCCCN1C)C(=O)N(C)[C@H](C(=O)NC12CC(C(=O)N[C@@H](Cc3ccccc3)C[C@H](C)C(=O)OC)(C1)C2)C(C)C  SF-295 CNS      102
4  Cn1cc(-c2csc(-c3cn(CCCCN4CCOCC4)c4ccc(F)cc34)n2)c2cccnc21  SF-295 CNS     50.8
5                       ClCc1ccc(Cl)c(Cl)c1  SF-295 CNS     94.4
6                   N#CCN(CC#N)[N+](=O)[O-]  SF-295 CNS      110
7  CCC(=O)C(CC(C)[N+](C)(C)C)(c1ccccc1)c1ccccc1 (stereo not given)  SF-295 CNS     95.3
8                              OCCNC1CCCCC1  SF-295 CNS      111
9  O=[N+]([O-])c1cc(Cl)c(Cl)c([N+](=O)[O-])c1Cl  SF-295 CNS      134

====

Tested on: HL-60(TB) leukemia
Assay: NCI-60 one-dose screen, 48 h (100 = growth as untreated, 0 = no growth, -100 = all killed)
Settings: 10 µM unless noted
About 83,000 compounds went through this panel and 20% of them were active in at least one assay; those are over-represented in the sample as a whole.
measuredQuantity: growth (%)

                                   compound  reading
0  CC[C@H](C)[C@H](NC(=O)[C@H]1CCCCN1C)C(=O)N(C)[C@H](C[C@@H](OC(C)=O)c1nc(C(=O)N[C@@H](Cc2ccccc2)C[C@H](C)C(=O)O)cs1)C(C)C    -29.8
1  CC1=C(C)C(=O)O[C@@H]([C@](C)(O)[C@]2(O)CC[C@@]3(O)[C@@H]4C[C@H]5O[C@]56CC=CC(=O)[C@]6(C)[C@H]4CC[C@]23C)C1    -36.9
2  C[N+]12CCC34C5=CC(=O)C(=O)C=C5[N+]5(C)C(=O)CC6OCC=C(C1)C(CC32)C6C45 (stereo not given)     84.2
3                C=C[Se]CC(=O)/C=C/c1ccccc1     42.2
4  CC1(C)CN=C(NN=C(/C=C/c2ccc(C(F)(F)F)cc2)/C=C/c2ccc(C(F)(F)F)cc2)NC1    -59.7
